# Test system: RAW-Dual (murine macrophage reporter line)
# protocol_description: IRF reporter (Lucia luciferase) activity fold change vs agonist alone; higher = enhanced IRF activity
# conditions_used: modulator concentration 10 µM; agonist: 3'3'-cGAMP 10 ug/mL
Given measured IRF reporter, output Condition met if it is greater than or equal to 1 and Condition not met if not.

// known answers, use as guide
• Oc1cc(O)c2c(c1)OC(c1ccc(O)c(O)c1)C(O)C2 (configuration not stated) = Condition not met
• CN(C)c1nc(CNS(C)(=O)=O)nc(N2CCOCC2)n1 = Condition met

Quick check: does OCCN(CCO)CC(O)Cn1c2ccc(Cl)cc2c2cc(Cl)ccc21 (configuration not stated) have IRF reporter greater than or equal to 1? Condition not met

COc1ccc(N(CC(=O)Nc2ccccc2C(F)(F)F)S(C)(=O)=O)cc1Cl ? Condition not met

How about CCOC(=O)C1=C(CC)OC(N)=C(C#N)C1c1cccc(Oc2ccc(Cl)cc2)c1 (configuration not stated) ? Condition not met

// same read-out, input: C1=CC2CC1CC2CN1CCC(N2CCCCC2)CC1 (configuration not stated) Condition not met

For Cc1cc(C)n(N=Cc2c[nH]c3ccccc23)c(=O)c1C#N then? Condition met

The reported numbers originate from the supplement of paper PMC10646978.
